- experiment notes: Plasma pharmacokinetics of DMT, harmine and their metabolites (non-compartmental analysis)
- stated conditions: male, human, plasma, other: intranasal
observable: half-life (min)

[[record]]
query_smiles = "CN(C)CCc1c[nH]c2ccccc12"
observable = "half-life"
result = 36


###

- experiment notes: clinical
- stated conditions: male, human, plasma, other: intranasal (DMT), buccal (harmine)
observable: AUC (ng·h/mL)

[[record]]
query_smiles = "O=C(O)Cc1c[nH]c2ccccc12"
reading_unit = "ng·h/mL"
result = 7580


###

- experiment notes: clinical
- stated conditions: male, human, plasma, other: intranasal (DMT), buccal (harmine)
observable: Cmax (ng/mL)

[[record]]
query_smiles = "O=C(O)Cc1c[nH]c2ccccc12"
reading_unit = "ng/mL"
result = 2910


###

- experiment notes: clinical
- stated conditions: male, human, plasma, other: intranasal (DMT), buccal (harmine)
observable: Tmax

[[record]]
compound = "O=C(O)Cc1c[nH]c2ccccc12 [3-IAA, indole-3-acetic acid]"
observable = "Tmax"
result = "4.1 h"

